system: RXF 393 renal; test: NCI tumour cell line growth inhibition, 48 h
Collected TGI values appear next to each entry.

FC(F)(F)c1ccc2c(c1)nc(Cc1ccc(Cl)c(Cl)c1)n2CC1CCCN2CCCCC12 (centres undefined)
> 100 µM
COc1cc(C(C#N)NNC(=O)Cc2ccccc2)cc(OC)c1OC (centres undefined)
> 100 µM
COc1cccc(CCn2c(N)c(C(=O)O)c3ccc([N+](=O)[O-])cc3c2=O)c1
> 100 µM
CC(C)(C)C1(c2ccc(C3(c4ccccc4)Oc4ccccc4S3)[nH]2)Oc2ccccc2S1 (centres undefined)
> 100 µM
O=C(c1ccco1)c1ccccc1C(=O)c1ccco1
> 100 µM
COC(=O)C1=C([C@H]2COC(C)(C)O2)[C@H]2C[C@@H]1[C@@H]1OC(C)(C)O[C@@H]12
> 100 µM

# get_value(readout='TGI', item= Cc1cc(C(=O)N[C@@H](CCC(=O)O)C(=O)O)sc1CC[C@@H]1CNc2nc(N)[nH]c(=O)c2C1 )
> 100 µM

Record: COC(=O)/C=C\[C@@H]1[C@H](C)N1S(=O)(=O)c1ccc(C)cc1 (some centres undefined)
> 100 µM

Record: Brc1cccc(Nc2ncnc3sc4c(c23)CCC(Nc2cccc(Br)c2)C4)c1 (centres undefined)
> 100 µM

Record: COc1nc2c(cc1S(=O)(=O)c1ccccc1)CCc1c-2cnn1Cc1ccccc1
> 100 µM

Record: CCN(CC)CCSc1n[nH]c(-c2c[nH]c3nc(C)ccc3c2=O)n1
> 100 µM

Record: CCCCNC(=O)OCC(COc1ccccc1OC)OC(=O)NCCCC (centres undefined)
> 100 µM

Record: CSC1=C(C#N)C(=O)N(c2ccc(Cl)cc2)C(=O)C1C#N (centres undefined)
> 100 µM

Record: O=C1CCc2nc3ncccc3cc2C1
> 100 µM

Record: CC1=C(C(=O)NNC(=O)C(N)=O)CC(C(=O)NNC(=O)C(N)=O)=C(C)N1
> 100 µM

Record: CCCCCCCCCCCCOC1C(CNCC2OC3OC(C)(C)OC3C2NC(=O)Nc2ccc(C(F)(F)F)cc2)OC2OC(C)(C)OC21 (centres undefined)
8.99 µM
